# TEST TARGET: Fructose-bisphosphate aldolase (Mycobacterium tuberculosis (strain ATCC 25618 / H37Rv)) (UniProt P9WQA3)
# Sequence (P9WQA3 whole entry, looked up): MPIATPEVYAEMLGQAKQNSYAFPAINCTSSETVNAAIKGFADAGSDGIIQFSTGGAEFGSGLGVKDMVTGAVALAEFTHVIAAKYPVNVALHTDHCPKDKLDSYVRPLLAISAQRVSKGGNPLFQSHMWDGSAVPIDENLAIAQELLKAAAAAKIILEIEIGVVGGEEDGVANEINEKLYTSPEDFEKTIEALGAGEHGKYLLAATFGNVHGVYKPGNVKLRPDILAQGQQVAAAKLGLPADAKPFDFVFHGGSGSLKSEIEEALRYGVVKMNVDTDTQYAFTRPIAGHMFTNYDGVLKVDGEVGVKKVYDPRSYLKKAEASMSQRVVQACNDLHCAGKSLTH
# MEASUREMENT PROTOCOL: Mtb FBA enzyme inhibitors, primary screen, biochemical, fluorescence, strain H37Rv (AID 588726);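 note: 0% = vehicle and 100% = reference inhibitor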
# CONDITION CONTEXT: purified M. tuberculosis FBA, fluorescence read-out, at 1 µM, hits give high values
Screen size: about 360,000 compounds; about 8,200 (2.3%) were called active. The list comes from a sample in which actives are over-represented; it also holds close analogues and randomly drawn compounds.
Item-by-item account of inhibition
Write the answer as a number in %, unit excluded.

COMPOUND	UNIT TEXT	RESULT VALUE
O=C(NCCc1ccccn1)c1cc(-c2ccc(Cl)cc2)nc2ccccc12	%	-0.88
COC(=O)c1cc(N2CCNCC2)nc2ccccc12	%	12.9
O=C(NCCN1CCOCC1)c1cc(-c2cccs2)nc2ccccc12	%	67.9
CCn1c(=N)c(S(=O)(=O)c2ccc(F)cc2)cc2c(=O)n3ccccc3nc21	%	20.8
O=C(CN1CCOc2ccccc21)N1CCC(Cc2ccccc2)CC1	%	6.13

Inquiry: Requested read-out: inhibition. Entry: O=C(NCCN1CCOCC1)c1cc(Sc2cccc(Cl)c2)nc2ccccc12
Reply text: -0.13

Inquiry: Query: inhibition; subject: CC(C)CCNc1nc(N2CCCC2)c2c(c1C#N)CCN(C)C2
Reply text: 4.23

====

Listing: inhibition of selected compounds
# TEST TARGET: Fructose-bisphosphate aldolase (Mycobacterium tuberculosis (strain ATCC 25618 / H37Rv))
# MEASUREMENT PROTOCOL: Mtb FBA enzyme inhibitors, primary screen, biochemical, fluorescence, strain H37Rv (AID 588726);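 note: 0% = vehicle and 100% = reference inhibitor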
# CONDITION CONTEXT: purified M. tuberculosis FBA, fluorescence read-out, at 1 µM, hits give high values
Hit rate of the full screen: of about 360,000 compounds, about 8,200 (2.3%) were called active. The full list was thinned out, with actives kept by preference.
Write the value in % as a bare number.

SMILES INPUT	MEASURED QUANTITY	RESULT VALUE
COc1ccc(-c2cc(C(=O)N(C)Cc3ccccc3)c3ccccc3n2)cc1	inhibition	69.9
O=C(c1ccc(Cl)s1)N(Cc1nnc(-c2ccccc2Cl)o1)C1CC1	inhibition	-1.65
CCc1nc2ccc(C(=O)N3CCN(c4cccc(Cl)c4)CC3)cc2nc1CC	inhibition	-5.44
COc1ccc(Cc2nnnn2CC(=O)O)cc1	inhibition	0.07
CC(C)N(Cc1nnc(-c2ccccc2Br)o1)C(=O)c1cc(Cl)nc2ccccc12	inhibition	2.07
O=C(Oc1ccccc1)Oc1ccc2c(c1)oc(=O)c1ccccc12	inhibition	8.31
CN(Cc1ccccc1)C(=O)CCNC(=O)Cn1cnc2ccccc2c1=O	inhibition	5.26
COc1cc2c(cc1OC)CC1(CCCCC1)N=C2	inhibition	45
Cc1ccc(NC(=O)CN(C)C(=O)c2ccc(Br)o2)cc1	inhibition	0.61
COc1ccc(CN(C)C(=O)c2cc(-c3ccc(C)cc3C)nc3ccccc23)c(OC)c1OC	inhibition	-0.53

Switching to the query record.
Inquiry: Looking for the measured inhibition of O=C(CSc1nnc(-c2ccncc2)n1C1CCCCC1)Nc1ccccc1 , can you help?
Reply text: -1.22

====

# TEST TARGET: Fructose-bisphosphate aldolase (Mycobacterium tuberculosis (strain ATCC 25618 / H37Rv))
# MEASUREMENT PROTOCOL: Mtb FBA enzyme inhibitors, primary screen, biochemical, fluorescence, strain H37Rv (AID 588726);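 note: 0% = vehicle and 100% = reference inhibitor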
# CONDITION CONTEXT: purified M. tuberculosis FBA, fluorescence read-out, at 1 µM
Screen size: about 360,000 compounds; about 8,200 (2.3%) were called active. Cut-off read from the data, not from the text of the source: active = inhibition above about 27%; inactive = the rest. The sample as a whole holds a higher share of actives than the screen did.
Pick one and only one: YES = active, NO = inactive

Please review the entries below; each comes with its answer.
MOLECULE	ASSIGNED CLASS
CCOC1CS(=O)(=O)CC1OCC (configuration not stated)	NO
O=C1COc2ccc(NC(=O)N3CCN(c4ccc(F)cc4)CC3)cc2N1	NO
O=C(Nc1ccc([N+](=O)[O-])cc1)C1(c2ccccc2)CCOCC1	NO
COc1ccc(S(=O)(=O)Nc2cccc3c2O[C@H](CN(C)S(=O)(=O)c2ccc(OC)cc2)[C@@H](C)CN([C@H](C)CO)C3=O)cc1	NO
O=C(CCCCCn1c(=S)[nH]c2ccsc2c1=O)NC1CCCCC1	NO

Inquiry: What was the test verdict on Cc1noc(C)c1S(=O)(=O)N(C)C[C@H]1Oc2c(NC(=O)Nc3ccc4c(c3)OCO4)cccc2C(=O)N([C@H](C)CO)C[C@@H]1C ?
Reply text: NO

Inquiry: Per the records of this test, what outcome belongs to CCOc1ccc(-n2c(SCC(N)=O)nnc2-c2ccco2)cc1 ?
Reply text: NO

Inquiry: Give the logged outcome of this assay for the following molecule: CCOC(=O)C1CCN(C(=O)COc2cccc3ccccc23)CC1
Reply text: NO

Inquiry: Entry CC1(C(=O)NCc2ccco2)Cc2c(-c3ccc4c(c3)OCO4)ccnc2O1 (configuration not stated) : call = ?
Reply text: YES

Inquiry: Entry CC(=O)Nc1cccc(-c2ccnc3c2CC(C)(C(=O)NCc2ccccc2)O3)c1 (configuration not stated) : call = ?
Reply text: NO

Inquiry: For this molecule, state the assay outcome: Cc1ccc(S(=O)(=O)NCc2ccc(C(=O)NC3CCC(C)CC3)cc2)cc1 (configuration not stated)
Reply text: NO

Inquiry: Call for entry Cc1c(C)c2ccc(OCC(=O)N3CCC(C(=O)O)CC3)c(C)c2oc1=O :
Reply text: YES

====

# TEST TARGET: Fructose-bisphosphate aldolase (Mycobacterium tuberculosis (strain ATCC 25618 / H37Rv)) (UniProt P9WQA3)
# MEASUREMENT PROTOCOL: Mtb FBA enzyme inhibitors, primary screen, biochemical, fluorescence, strain H37Rv (AID 588726);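 note: 0% = vehicle and 100% = reference inhibitor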
# CONDITION CONTEXT: purified M. tuberculosis FBA, fluorescence read-out, at 1 µM
Screen size: about 360,000 compounds; about 8,200 (2.3%) were called active. Cut-off read from the data, not from the text of the source: active = inhibition above about 27%; inactive = the rest. Many of the other results were omitted from the sample, so actives are more common in it than they were.
Entry note: the call must match one of true for active, false for inactive

Would you please look over these solved cases?
MOLECULE	ASSIGNED CLASS
C[C@H](NC(=O)c1ccccc1Cl)C(=O)OCCOc1cccc(Cl)c1	false
CCCCn1c(N)c(N(CC(C)C)C(=O)c2cnc(C)cn2)c(=O)[nH]c1=O	false
Cc1cc(C(=O)CC#N)c(C)n1-c1c(C)n(C)n(-c2ccccc2)c1=O	false
CCOC(=O)Cc1ncccc1C(=O)Nc1ccc(OC)cc1	false
Cc1ccc(S(=O)(=O)N2C[C@@H](C)[C@]3(C2)[C@H](O)[C@H](OC(=O)NCc2ccccc2)C[C@H]2C(=O)N(c4ccccc4)C(=O)[C@H]23)cc1	true
Cn1c(=O)n(C)c(=O)n(CC(=O)N2CCCCC2)c1=O	false

Now, please, on to the next molecule.
Inquiry: Lab log entry: O=C(CN1C(=O)c2cccc3cccc1c23)Nc1ccccc1 — outcome as called in the assay?
Reply text: false

====

Parameter: inhibition. Scope: all listed entries.
# TEST TARGET: Fructose-bisphosphate aldolase (Mycobacterium tuberculosis (strain ATCC 25618 / H37Rv))
# MEASUREMENT PROTOCOL: Mtb FBA enzyme inhibitors, primary screen, biochemical, fluorescence, strain H37Rv (AID 588726);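 note: 0% = vehicle and 100% = reference inhibitor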
# CONDITION CONTEXT: purified M. tuberculosis FBA, fluorescence read-out, at 1 µM, hits give high values
About 8,200 (2.3%) of roughly 360,000 compounds were called active. The list comes from a sample in which actives are over-represented; it also holds close analogues and randomly drawn compounds.
Write the value in % as a bare number.

Worked examples follow.
MOLECULE	UNIT TEXT	inhibition
CNc1cncc(-c2ccc(NS(C)(=O)=O)cc2)n1	%	174
CC(C)C(=O)N1CCC2(CC1)Oc1ccc(F)cc1C(=O)C21CC(c2ccccc2)=NO1 (stereo not drawn)	%	4.59

Inquiry: Would you kindly share the measured inhibition for CSCCC(NS(=O)(=O)c1ccc(C)cc1)C(=O)N1CCCC1 (stereo not drawn) ?
Reply text: -1.91

====

# TEST TARGET: Fructose-bisphosphate aldolase (Mycobacterium tuberculosis (strain ATCC 25618 / H37Rv)) (UniProt P9WQA3)
# MEASUREMENT PROTOCOL: Mtb FBA enzyme inhibitors, primary screen, biochemical, fluorescence, strain H37Rv (AID 588726);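 note: 0% = vehicle and 100% = reference inhibitor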
# CONDITION CONTEXT: purified M. tuberculosis FBA, fluorescence read-out, at 1 µM
The campaign covered roughly 360,000 compounds. About 8,200 (2.3%) were called active. No stated cut-off is given here; in the data, active means inhibition above about 27%; inactive means the rest. The full list was thinned out, with actives kept by preference.
Hello, when you answer, please use one of the following outcomes: active, inactive

COMPOUND	ASSIGNED CLASS
COc1ccc(-c2nn(-c3ccccc3)cc2CN2CCCO2)c(F)c1	inactive
CN(C(=O)CSc1nnc(-c2c[nH]c3ccccc23)o1)C1CCS(=O)(=O)C1 (centres undefined)	inactive
Cc1ccc(-c2nnc(-n3nnc4ccccc43)c3ccccc23)cc1	inactive

Inquiry: Please state the recorded outcome for this compound: COc1ccc(-n2cc(CNC3CCOCC3)c(-c3cccc(F)c3)n2)cc1
Reply text: active
